# Test Summary: E. coli DRC41 culture turbidity changes, primary screen, E. coli filamentation inducer project, strain DRC41, OD650, 48 h (AID 1152);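 note: E. coli MC1000 strain DRC41 lacking acrAB efflux pump and sulA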
# Experimental Setup: E. coli DRC41 (acrAB sulA), higher = more signal, called active from +8 up or from −8 down
Response key: Yes means z-score >= 0.6; No means z-score < 0.6.

Worked examples, 5 compounds total:
C=CCNC(=O)[C@@H]1[C@H]2C(=O)O[C@H](c3ccccc3)[C@H](c3ccccc3)N2[C@H](c2ccc(O)cc2)[C@@]12C(=O)Nc1ccc(C#CC3=CCCCC3)cc12 : No
CCCCCN1CC=CC23O[C@@H]4/C=C\CCCOC(=O)C4[C@H]2C(=O)N(CCO)[C@@H]3C1=O (some centres not stated) : Yes
C=C(C(=O)CC[C@H](OC(=O)c1ccccc1-c1ccccc1C(=O)O)c1ccc(OCCO)cc1)C(C)C : No
C=CCNC(=O)[C@H]1[C@@H]2C(=O)O[C@@H](c3ccccc3)[C@@H](c3ccccc3)N2[C@@H](c2ccc(O)cc2)[C@]12C(=O)Nc1ccccc12 : Yes
C=C(COC)C(=O)CC[C@H](OC(C)=O)c1ccccc1OCCO : Yes

**Q:** Kindly determine if z-score recorded for CCCNC(=O)[C@@]1(Sc2ccc(C)cc2)CC(=O)N(Cc2cc(C(F)(F)F)cc(C(F)(F)F)c2)[C@@H]1c1ccc(CO)cc1 is above or exactly 0.6.
**A:** Yes

**Q:** State whether the measured z-score reaches 0.6, counting equality as reaching it, for CC(C)c1ccc(NN2C(C(O)C3CCCCC3)C=CC3C(=O)N(c4ccccc4)C(=O)C32)cc1 (configuration not stated)
**A:** No
